assay: Oral bioavailability in rat; type: ADME, organism-based; settings: in vivo
Recorded Metric: bioavailability (%)

> print(dat)
                         structure.notation  units.symbol  reported.value
1  CCCCN(CCCC)C(=O)CN1C[C@H](c2ccc3c(c2)CCO3)[C@@H](C(=O)O)[C@@H]1c1ccc(OC)cc1             %              33
2  CCCCN(CCCC)C(=O)CN1C[C@H](c2ccc3c(c2)OCO3)[C@@H](C(=O)O)[C@@H]1c1ccc(OC)cc1             %              68
3  CCCCN(CCCC)C(=O)CN1C[C@H](c2ccc3occc3c2)[C@@H](C(=O)O)[C@@H]1c1ccc(OC)cc1             %              39
4  CCCCN(CCCC)C(=O)CN1C[C@H](c2ccc3c(c2)OCC3)[C@@H](C(=O)O)[C@@H]1c1ccc(OC)cc1             %              68
5  CCCCN(CCCC)C(=O)CN1C[C@H](c2ccc3ccoc3c2)[C@@H](C(=O)O)[C@@H]1c1ccc(OC)cc1             %              38

Source of measurements: ChEMBL document CHEMBL1130287
